# Test system: TK-10 renal
# Protocol text: NCI tumour cell line growth inhibition, 48 h
Provide the reported GI50 of each item.

Query :: Identify the measured GI50 of CN(C)c1ccc([O-])cc1.CN(C)c1ccc([O-])cc1.CN(C)c1ccc([O-])cc1.CN(C)c1ccc([O-])cc1.[Ti+4] for TK-10 renal.
Result :: > 100 µM

Query :: Item: CCC(=O)O[C@H]1CC[C@H]2[C@@H]3CC[C@H]4CC(=O)[C@H](C)C[C@]4(C)[C@H]3CC[C@]12C
Result :: 43.7 µM

Query :: Please answer likewise for COc1cc(/C=C\c2ccc(C)cc2)cc(OC)c1OC
Result :: 25.7 µM

Query :: Repeat for the following molecule: CCn1c(C(=O)N(C2CC2)C2CC2)cc2c3c(ncn3C)c(Nc3cc(C)n(C)n3)nc21
Result :: > 100 µM

Query :: How about this molecule: Cc1c(S(C)(=O)=O)c(-c2cc(F)cc(N3CCN(c4ccc(NS(=O)(=O)c5ccc(N[C@H](CCN6CCC(C(=O)OCCCP(=O)(O)O)CC6)CSc6ccccc6)c(S(=O)(=O)C(F)(F)F)c5)cc4)CC3)c2)c(-c2ccc(Cl)cc2)n1C(C)C
Result :: 25.8 µM

Query :: Item: O=[N+]([O-])c1ccc(S(=O)Cc2ccccc2)c([N+](=O)[O-])c1 (stereo unspecified)
Result :: 1.78 µM

The values you see were collected from PubChem BioAssay (NCI).
